// provenance: patent US8754233B2

Items are presented alongside their recorded pIC50.
- Test system: ConA 1° splenocytes
- procedure_summary: Survival of ConA 1° splenocytes (cytotoxicity by MTS staining)
- Assay type: cell-based, mouse
- experimental_parameters: ConA-stimulated splenocytes
Reminder that pIC50 means the negative base-10 logarithm of the concentration expressed in mol/L.

compound_structure_string | pIC50
COc1cc2sc(-c3c(N4CCNCC4)n[nH]c3N)nc2cc1F | 4.76

Now let's try a different one.
Q: Endpoint output: pIC50 of COc1ccc2nc(-c3c(N4CCNCC4)n[nH]c3N)sc2c1 . Value?
Result: 4.69

* * *

- System: MCP1 on HUVECS
- procedure_summary: Inhibition of MCP-1 release from TNFα-stimulated HUVEC
- Assay type: cell-based, human
- experimental_parameters: 18-24 hours, ELISA
property_label: IC50

compound_structure_string | IC50
COc1cc2sc(-c3c(N4CCNCC4)n[nH]c3N)nc2cc1F | 10.9 µM

Continue with the next compound.
Q: Item COc1cc2sc(-c3c(NCCN(C)C)n[nH]c3N)nc2cc1F has what recorded IC50?
Result: > 25 µM
